# measuredTarget: T1, TIGIT (UniProt Q495A1 22-141, limits assumed)
# T1 construct: also called T cell immunoreceptor with Ig and ITIM domains; hTIGIT
# T1 sequence (looked up): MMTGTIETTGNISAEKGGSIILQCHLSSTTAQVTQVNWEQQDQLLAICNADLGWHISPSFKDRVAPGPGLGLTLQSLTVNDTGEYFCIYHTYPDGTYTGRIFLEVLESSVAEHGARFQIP
# assayComment: SPR (Carterra)
Catalogue of log10 kon values
Plainly stated, the numbers are log10 of kon given in M⁻¹ s⁻¹.

{"binder": "TIGIT-211-35 (antibody, V domains shown) VH: EVQLLESGGGLVQPGGSLRLSCAASGFTFNAYPMTWVRQAPGKGLEWVSAITGSGGSTYYADSVKGRFTISRDNSKNTLYLQMNSLRAEDTAVYYCARDGSYSSSWYGYWGQGTLVTVSS VL: DIQMTQSPSSLSASVGDRVTITCSGNKLGDKYASWYQQKPGKAPKLLIYRTSWLQSGVPSRFSGSGSGTDFTLTISSLQPEDFATYYCVARAVRGNPHVLFGQGTKVEIK", "log10 kon": 4.83}
{"binder": "TIGIT-211-17 (antibody, V domains shown) VH: EVQLLESGGGLVQPGGSLRLSCAASGFTFAEYSMNWVRQAPGKGLEWVSWISPHGALTYYADSVKGRFTISRDNSKNTLYLQMNSLRAEDTAVYYCARSYGGGFDYWGQGTLVTVSS VL: DIQMTQSPSSLSASVGDRVTITCRASQTIERRLNWYQQKPGKAPKLLIYQNDKRPSGVPSRFSGSGSGTDFTLTISSLQPEDFATYYCQQSYSIPPTFGQGTKVEIK", "log10 kon": 5.42}
{"binder": "TIGIT-211-45 (antibody, V domains shown) VH: EVQLLESGGGLVQPGGSLRLSCAASGFTFRRYVMGWVRQAPGKGLEWVSEISPSGGYTYYADSVKGRFTISRDNSKNTLYLQMNSLRAEDTAVYYCAKRWTFNTAFDYWGQGTLVTVSS VL: DIQMTQSPSSLSASVGDRVTITCRASQSIRRYLNWYQQKPGKAPKLLIYDASNLQSGVPSRFSGSGSGTDFTLTISSLQPEDFATYYCQQSYDFPRTFGQGTKVEIK", "log10 kon": 4.08}
{"binder": "TIGIT-211-51 (antibody, V domains shown) VH: EVQLLESGGGLVQPGGSLRLSCAASGFTFHKYGMAWVRQAPGKGLEWVSTISSGGGYTYYPDSVKGRFTISRDNSKNTLYLQMNSLRAEDTAVYYCARDTYLHFDYWGQGTLVTVSS VL: DIQMTQSPSSLSASVGDRVTITCRASQGVRTSLAWYQQKPGKAPKLLIYAKNNRPSGVPSRFSGSGSGTDFTLTISSLQPEDFATYYCQQSYSAPYTFGQGTKVEIK", "log10 kon": 5.54}
{"binder": "TIGIT-211-40 (antibody, V domains shown) VH: EVQLLESGGGLVQPGGSLRLSCAASGFTFSRYAMNWVRQAPGKGLEWVSEISPSGKKKYYADSVKGRFTISRDNSKNTLYLQMNSLRAEDTAVYYCAKSSFDKYNFDYWGQGTLVTVSS VL: DIQMTQSPSSLSASVGDRVTITCRASQDIGNFLNWYQQKPGKAPKLLIYRTSWLQSGVPSRFSGSGSGTDFTLTISSLQPEDFATYYCQQRSSYPPTFGQGTKVEIK", "log10 kon": 5.01}
{"binder": "TIGIT-211-30 (antibody, V domains shown) VH: EVQLLESGGGLVQPGGSLRLSCAASGFTFKSYGMHWVRQAPGKGLEWVSAISGSGGGTSYADSVKGRFTISRDNSKNTLYLQMNSLRAEDTAVYYCARAGQWLGDFDYWGQGTLVTVSS VL: DIQMTQSPSSLSASVGDRVTITCRASQPIGPDLLWYQQKPGKAPKLLIYRKSNRPSGVPSRFSGSGSGTDFTLTISSLQPEDFATYYCQQSYSTPYTFGQGTKVEIK", "log10 kon": 4.48}

Let us move to another entry and its log10 kon.
log10 kon reported for this binder TIGIT-211-42 (antibody, V domains shown) VH: EVQLLESGGGLVQPGGSLRLSCAASGFTFNHYGMGWVRQAPGKGLEWVSYISSSGSSTYYADSVKGRFTISRDNSKNTLYLQMNSLRAEDTAVYYCAKGWLGNFDYWGQGTLVTVSS VL: DIQMTQSPSSLSASVGDRVTITCRASQGVRTSLAWYQQKPGKAPKLLIYGKNIRPSGVPSRFSGSGSGTDFTLTISSLQPEDFATYYCQQSYSFPLTFGQGTKVEIK : 3.99
